The reported numbers originate from patent US10316020B2.

Assay summary: Pharmacokinetic clearance in intravenously dosed rats
Type: in vivo
Settings: male, Sprague-Dawley, rat, whole blood, iv, 0.5 mg/kg, i.v. 0.5 mg/kg, Discrete - D (10% propylene glycol, 10% Solutol HS15, PBS)
Kindly supply the reported clearance values for the records listed here.
Entry rule: numbers only, all in mL/min/kg.

[in] GET /values?readout=clearance&item= CCc1cc(O[C@H]2CCc3cccc(-c4cccc(-n5ncc(C(=O)O)c5OC)c4)c32)ccc1C1CCN(C(=O)C2CC2)CC1
[out] 89

[in] GET /values?readout=clearance&item= CCc1cc(NC2CCc3cccc(-c4cccc(-n5ncc(C(=O)O)c5N)n4)c32)ccc1C1CCN(C(=O)C2CC2)CC1 (single isomer, unassigned; (+)) [Example 18A]
[out] 98

[in] GET /values?readout=clearance&item= Cc1cc(C2CCN(C(=O)C3CC3)CC2)ccc1CC1CCc2cccc(-c3cccc(-n4ncc(C(=O)O)c4C)n3)c21 (single isomer, unassigned; (+))
[out] 25.6

[in] GET /values?readout=clearance&item= CCc1cc(NC2CCc3cccc(-c4cccc(-n5ncc(C(=O)O)c5CC)n4)c32)ccc1C1=CCN(C(=O)C2CC2)CC1 (single isomer, unassigned; (+)) [reference compound]
[out] 38
